# TESTED_ON: T1, human transferrin receptor (recombinant, for surface plasmon resonance) (human, UniProt P02786 89-760)
# T1 construct: also called huTfR; human transferrin receptor-biotinylated
# EXPERIMENTAL_PROTOCOL: SPR 25C
Would you please tag the item true (1) when its koff is 0.002 s⁻¹ or above, and false (0) when it is below?

Reference set (4 entries):
# BINDER, CAT
rows = [
    ("2/99 VH12/VL12 (antibody, V domains shown) VH: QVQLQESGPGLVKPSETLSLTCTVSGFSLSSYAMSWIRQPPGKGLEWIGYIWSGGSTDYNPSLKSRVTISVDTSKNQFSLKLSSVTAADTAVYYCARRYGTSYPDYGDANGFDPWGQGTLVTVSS VL: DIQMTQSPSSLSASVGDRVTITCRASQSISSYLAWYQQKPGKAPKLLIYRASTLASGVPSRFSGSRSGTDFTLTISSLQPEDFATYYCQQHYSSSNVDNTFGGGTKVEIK", "false (0)"),
    ("2/99 VH1/VL6 (antibody, V domains shown) VH: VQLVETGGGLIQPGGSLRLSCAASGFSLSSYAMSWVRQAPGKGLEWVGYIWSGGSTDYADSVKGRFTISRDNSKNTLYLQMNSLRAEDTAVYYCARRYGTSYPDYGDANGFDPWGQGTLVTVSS VL: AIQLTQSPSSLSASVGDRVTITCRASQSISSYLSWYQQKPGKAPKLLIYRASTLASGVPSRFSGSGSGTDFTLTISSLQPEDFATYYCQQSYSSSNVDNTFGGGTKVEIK", "true (1)"),
    ("2/99 VH16/VL17 (antibody, V domains shown) VH: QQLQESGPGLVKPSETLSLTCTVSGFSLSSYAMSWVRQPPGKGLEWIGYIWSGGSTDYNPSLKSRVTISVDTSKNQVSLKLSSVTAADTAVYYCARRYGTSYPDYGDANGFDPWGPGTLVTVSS VL: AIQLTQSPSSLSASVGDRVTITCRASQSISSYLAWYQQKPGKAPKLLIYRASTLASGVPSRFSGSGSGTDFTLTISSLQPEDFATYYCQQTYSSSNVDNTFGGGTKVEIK", "false (0)"),
    ("2/99 VH15/VL4 (antibody, V domains shown) VH: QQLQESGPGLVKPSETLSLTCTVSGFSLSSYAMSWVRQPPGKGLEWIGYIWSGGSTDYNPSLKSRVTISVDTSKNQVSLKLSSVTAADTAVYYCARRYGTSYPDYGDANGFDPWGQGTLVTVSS VL: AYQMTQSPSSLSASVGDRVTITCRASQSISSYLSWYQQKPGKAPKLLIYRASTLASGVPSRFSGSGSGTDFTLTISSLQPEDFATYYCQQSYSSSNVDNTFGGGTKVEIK", "false (0)"),
]

As a next step, examine the binder that follows.
Please indicate if the recorded koff for 2/99 VH5/VL7 (antibody, V domains shown) VH: QSMEETGGGLIQPGGSLRLSCAASGFSLSSYAMSWVRQAPGKGLEWVGYIWSGGSTDYADSVKGRFTISRDNSKNTLYLQMNSLRAEDTAVYYCARRYGTSYPDYGDANGFDPWGPGTLVTVSS VL: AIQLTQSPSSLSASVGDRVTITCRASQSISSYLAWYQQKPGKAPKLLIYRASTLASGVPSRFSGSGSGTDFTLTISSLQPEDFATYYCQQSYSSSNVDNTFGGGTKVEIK meets or exceeds 0.002 s⁻¹.
true (1)
